Hello, the source for this data is paper PMC12775996, in case you need it.

Biological target: adenovirus type 11 vector particles (human adenovirus type 11)
Assay: SPR; hydrophobic (slow) component of one-to-two model
Readout type: pKd
FYI, pKd means -log10 of a concentration in mol per litre.

Query: For the binder human platelet factor 4 (natural protein) EAEEDGDLQCLCVKTTSQVRPRHITSLEVIKAGPHCPTAQLIATLKNGRKICLDLQAPLYKKIIKKLLES , give its reported pKd.
Reply: 7.87
